- ASSAY_INFO: folding stability dG unfold from chymotrypsin proteolysis; higher = more stable
Could you label it Yes if measured folding stability dG unfold is 1 kcal/mol or higher, and No otherwise?

folding stability dG unfold >= 1 kcal/mol for SAGGSPSMSPEELAKREKERILEELRKKGGSKTIPMKVEITVPDEKGNTTKYNIEINITVEVPEDKLSAGGS [r16_550_JUSTAS] ? Yes

folding stability dG unfold >= 1 kcal/mol for SNPWVEITIYFPMRPDPNGKMQPLSPSELLEELLKQGFPIKDIDIDEVTDNYIPITIRIDAKDGKIEIEWSA [r9_225_TrROS] ? Yes

folding stability dG unfold >= 1 kcal/mol for SAGGSAGGPEIDLKEVRVFYPPGGERLVLVEVRDDVPLEQVRDWVLERGGEFYRELPNQILVRGSAGGSAGG [r6_543_TrMRF] ? No

folding stability dG unfold >= 1 kcal/mol for SAGGSAGGSKRKIKVDDVEPPPNGFMRVTLEVDDGKPLVPINIPPGQTPSEVKDQVKDLVEELSAGGSAGGS [r12_798_TrROS] ? Yes

folding stability dG unfold >= 1 kcal/mol for SAGGSAGGSAGGNVRNLDISLDPEEGTIKIKATLPENGQTWEITIPVQIPLPPPPPGDNSAGGSAGGSAGGS [r10_331_TrROS] ? No

folding stability dG unfold >= 1 kcal/mol for SAGGSAGGSAMIEISEEELEKLLAETPEEEAKEVKIERIPDIGLINVTIPSGKVIKVKIKESAGGSAGGSAG [r3_291_JUSTAS] ? Yes

folding stability dG unfold >= 1 kcal/mol for SAGGSAGGSAEELAKKLAEELRKEHNLEVTVEEVELKEEEIPGLKFKPGQKLLVITVKKKDSAGGSAGGSAG [r3_229_TrROS_Hall] ? No

folding stability dG unfold >= 1 kcal/mol for SALPPGTTVTYTFYDPATGALVTVTVTTLPDGTVRVTLTVYDPSTGETTTVTFTVDGATLDELLDFIRAGSA [r9_618_TrMRF] ? Yes

folding stability dG unfold >= 1 kcal/mol for SAGGSAGGSAGMTITKTEDGTYRLTLTVTETLPNGSTVTRTVTLTVPLEDAEEILAALPPSAGGSAGGSAGG [r11_505_TrROS_Hall] ? Yes

folding stability dG unfold >= 1 kcal/mol for SAGGSAGGSAEPPRYLVIELEVERSPEEIAEELRRRLGIERVEVEYDPETERLRVRVVVRLPSAGGSAGGSA [r18_275_TrROS_Hall] ? Yes

folding stability dG unfold >= 1 kcal/mol for SAGGMSLHIPLPANNEELAEELAEELRDLYAAIPGTPGEVEVDIEPTPEGGYRLIVRFPDHVDEIPASAGGS [r16_356_TrMRF] ? Yes

folding stability dG unfold >= 1 kcal/mol for SAGGYKITIPAMFDTPEDALDQVREIARSLGYRITDIKNVEVHKHEDNGMVMVEATIKIEPLPKGQLSAGGS [r16_155_TrROS] ? Yes

folding stability dG unfold >= 1 kcal/mol for SAGGSVDVSYDPSTGVVTVTIPSPTGSIGEEEVERVARELKEKYPNVTVSFTPSPGPAVTVTITIPGGSAGG [r13_291_JUSTAS] ? Yes

folding stability dG unfold >= 1 kcal/mol for SKLVEKIAEEFGISSAMPHPDGQFMIMFPDGYMIKINIEIDEVKPKPDGKPELDLDIEIEIIPMPPPDDMSA [r9_648_TrROS] ? Yes

folding stability dG unfold >= 1 kcal/mol for SAGGSAGGMVLVLRFPLGEPALIALYDPETGEVHVYDPGTRELLGTFPLPIEDFLELGAEAEPVSAGGSAGG [r6_831_TrMRF] ? Yes
